- System: gum arabic
- ASSAY DETAILS: VHH binding to gum arabic in ELISA
- Design: species or system acacia tree
- EXPERIMENTAL SETUP: [VHH] 0.0117188 μg/ml (0.78125 nM); gum arabic 100 μg/ml
ENDPOINT NAME: absorbance at 405 nm

1) VHH 5G5 (VHH, Hexahistidine-tagged) VHH: QVQLQESGGGLVQPGGSLRLSCAASGFSLRYFGIGWFRQAAGKEREGISCSNVRDGNTYYADSVKGRFTISRDNVRNMLYLQMNNLKPDDTAVYSCATTDCEATTWGTYRGYFGQGTQVTVSS    0.125
2) VHH 5C4 (VHH, Hexahistidine-tagged) VHH: QVQLQESGGGLVQPGGSLRLSCAASGFSLRYFGIGWFRQVAGKEREPVSCSNVRDGNTYYADSVKGRFTISRDNVRNTLYLQMNSLKPEDTAVYSCATTDCEATTWGTYRGYFGQGTQVTVSS    0.166
3) VHH 3E6 (VHH, also called Monovalent VHH 3E6) VHH: QVQLQESGGGLVQPGGTLSLSCAASGFNVRWYGMGWFRQAPGKEREGVACISALQETTAYADSVKGRFTLSRDNPKNTLSLQMNNLQPEDTGVYYCATTDCDDSSRMTYTSYLGQGTQVTVSS    0.392
4) VHH5F5: plant-binding VHH, listed among SEQ ID NO:1-42 (protein, listed as Lama glama, 5F5) VHH: QVQLQESGGGLVQPGGSLRLSCAASGFPLGLYGIGWFRQAPGKEREAVSCDSVDDGSTNYLDSVKGRFTISRDNAKNMVYLQMNSLKPEDTAVYYCATTDCDAKAWGTWTNYRGQGTQVTVSS    0.093
